# Tested on: CT60 cells
# Test Summary: Gas chromatography cholesterol assay
# Assay type: cell-based, Chinese hamster
# Measurement Conditions: 10 μM, FC = free cholesterol
Experimental Endpoint: μg FC/μg Protein by GC Fraction of control

Worked examples, 3 compounds total:
Query Smiles: O=C1Nc2ccccc2C1=NNc1nc(N2CCCCC2)nc(N2CCCCC2)n1
Experimental Target: CT60 cells
Result: 0.86 ± 0.07 Fraction of control
--
Query Smiles: O=C1C(=Cc2ccc(-c3ccc(Cl)c(Cl)c3)o2)C=C(c2ccccc2)N1c1ccc(O)cc1
Experimental Target: CT60 cells
Result: 1.18 ± 0.06 Fraction of control
--
Query Smiles: CCOC(=O)c1sc(NC(=O)c2ccccc2C)nc1-c1ccccc1
Experimental Target: CT60 cells
Result: 0.82 ± 0.07 Fraction of control

Query `O=C1C(=Cc2ccc(-c3ccc(Br)cc3)o2)C=C(c2ccccc2)N1c1ccc(O)cc1` yields μg FC/μg Protein by GC Fraction of control of 1.31 ± 0.10 Fraction of control

// recorded μg FC/μg Protein by GC Fraction of control for `Nc1c(Sc2ccccc2)cc(Sc2ccccc2)c2c1C(=O)c1ccccc1C2=O` : 1.02 ± 0.03 Fraction of control

GET /value?item= `O=C1C(=Cc2ccc(-c3cc(Cl)ccc3Cl)o2)C=C(c2ccccc2)N1c1ccc(O)cc1` &field=μg FC/μg Protein by GC Fraction of control returns 1.04 ± 0.13 Fraction of control

###

# System: CT60 cells
# Test Summary: Gas chromatography cholesterol assay
# Assay type: cell-based, Chinese hamster
Experimental Endpoint: μg FC/μg Protein (GC) @ 10 μM dose Fraction of Control

As a guide, the following entries are already answered.
Query Smiles: CCN(CC)c1ccc(C=C2SC(=S)N(c3ccc(OC)cc3)C2=O)cc1
Result: 0.81 ± 0.03 Fraction of Control

Query Smiles: O=[N+]([O-])c1cccc(C=NNc2nc(Nc3cccc4ccccc34)nc(N(c3ccccc3)c3ccccc3)n2)c1
Result: 0.79 ± 0.04 Fraction of Control

Query Smiles: C=CCN1C(=O)C(=Cc2cc(C)n(-c3ccccc3)c2C)C(C(=O)OC)=C1C
Result: 0.89 ± 0.03 Fraction of Control

# next compound below
Input `COc1ccccc1Nc1nc(Nc2ccccc2OC)nc(Nc2ccccc2OC)n1` . Output μg FC/μg Protein (GC) @ 10 μM dose Fraction of Control: 0.75 ± 0.04 Fraction of Control

###

The compounds listed here are annotated with their μg FC/μg Protein by GC Fraction of control.
# Tested on: CT60 cells
# Test Summary: Gas chromatography cholesterol assay
# Format: cell-based, Chinese hamster
# Measurement Conditions: 10 μM, FC = free cholesterol

Compound: C=CCN1C(=O)C(=CC=Cc2ccc(N(C)C)cc2)SC1=S [Compound 1-a-2]
Result: 1.15 ± 0.05 Fraction of control
//
Compound: COc1ccccc1NN=C1C(=O)N(c2nc(-c3ccc(Cl)cc3)cs2)N=C1C [Compound 1-a-4]
Result: 0.87 ± 0.07 Fraction of control
//
Compound: CN(C)c1cc(NN=Cc2cccs2)nc(N(C)C)n1 [Compound 1-a-12]
Result: 0.73 ± 0.03 Fraction of control
//
Compound: Cc1cc([N+](=O)[O-])ccc1NC(=O)CC1SC(=Nc2ccccc2)N(c2ccccc2)C1=O (centres unmarked) [Compound 1-a-10]
Result: 1.23 ± 0.08 Fraction of control
//
Compound: O=C(O)c1ccc(N2C(=O)C(=Cc3ccc(-c4ccc(Br)cc4)o3)C=C2c2ccccc2)cc1 [Compound 1-a-13]
Result: 1.54 ± 0.11 Fraction of control

Test item CCOc1cccc2cc(-c3csc(Nc4cccc(C(F)(F)F)c4)n3)c(=O)oc12 [Compound 1-a-14] ; CT60 cells; reported μg FC/μg Protein by GC Fraction of control was 1.44 ± 0.16 Fraction of control

// returns μg FC/μg Protein by GC Fraction of control for O=C1C(=Cc2ccc(-c3ccc(Cl)c(Cl)c3)o2)C=C(c2ccccc2)N1c1ccccc1O [Compound 1-a-6] with CT60 cells; value = 1.37 ± 0.01 Fraction of control

Lab entry: CT60 cells assay, compound CCOc1ccc(NN=C2C(=O)N(c3nc(-c4ccccc4)cs3)N=C2c2ccccc2)cc1 [Compound 1-a-3] , μg FC/μg Protein by GC Fraction of control = 1.27 ± 0.07 Fraction of control

// provenance: patent US20090012148A1
